outcome_measure: melting point

[
  {
    "compound": "C[C@@]12CCC[C@H]1[C@@H]1CC[C@@H]3C[C@H](OCCOC(=O)C4CCCC(=O)N4)CC[C@]3(C)[C@H]1CC2 (stereo partly shown)",
    "value_reported": "117 to 119 °C"
  },
  {
    "compound": "C[C@@]12CCC[C@H]1[C@@H]1CC[C@@H]3C[C@H](OC(=O)C4CCC(=O)N4)CC[C@]3(C)[C@H]1CC2 (stereo partly shown)",
    "value_reported": "136 to 137 °C"
  },
  {
    "compound": "C/C=C1/CC[C@H]2[C@@H]3CC[C@@H]4C[C@H](OC(=O)C5CCC(=O)N5)CC[C@]4(C)[C@H]3CC[C@]12C (stereo partly shown)",
    "value_reported": "155 to 157 °C"
  },
  {
    "compound": "C[C@]12CC[C@@H](OC(=O)C3CCCC(=O)N3)C[C@H]1CC[C@@H]1[C@@H]2CC[C@]2(C)[C@@H](C#N)CC[C@@H]12 (stereo partly shown)",
    "value_reported": "69 to 71 °C"
  },
  {
    "compound": "CC(=O)NCC(=O)O[C@@H]1CC[C@@]2(C)[C@H](CC[C@@H]3[C@@H]2CC[C@]2(C)[C@@H](C(C)=O)CC[C@@H]32)C1",
    "value_reported": "111 to 113 °C"
  },
  {
    "compound": "C[C@]12CC[C@@H](OC(=O)C3CCC(=O)N3)C[C@H]1CC[C@@H]1[C@@H]2CC[C@]2(C)C(=O)CC[C@@H]12 (stereo partly shown)",
    "value_reported": "114 to 116 °C"
  },
  {
    "compound": "C[C@@]12CCC[C@H]1[C@@H]1CC[C@@H]3C[C@H](OC(=O)C4CCCC(=O)N4)CC[C@]3(C)[C@H]1CC2 (stereo partly shown)",
    "value_reported": "109 to 111 °C"
  }
]

The values you see were collected from patent US20220162257A1.
